test system: MM1.R (cancer type: MM); assay: normalized area under the dose-response curve (viability relative to DMSO control) (fraction); higher = less sensitive (more viable cells); settings: exposure time not given
observed.property: normalized area under the dose-response curve
Please give only the number in your answer, with no unit.

In the examples that follow, each entry is paired with its recorded normalized area under the dose-response curve.
- molecule: "Cc1ccc(C(=O)Nc2ccc(CN3CCN(C)CC3)c(C(F)(F)F)c2)cc1C#Cc1cnc2cccnn12 [Ponatinib]"
  measured.on: "MM1.R (cancer type: MM)"
  value.reported: 0.5
- molecule: "Nc1ncn([C@@H]2O[C@H](CO)[C@@H](O)[C@H]2O)c(=O)n1 [Azacitidine]"
  measured.on: "MM1.R (cancer type: MM)"
  value.reported: 0.65

Please examine the following record next.
// query Look at this molecule and give its reported normalized area under the dose-response curve. Nc1ncn([C@H]2C[C@H](O)[C@@H](CO)O2)c(=O)n1 [Decitabine]
// result 0.85
